test system: NCI/ADR-RES ovarian; assay: NCI tumour cell line growth inhibition, 48 h
Give TGI for every item shown.

The compound O=C(Nc1ccc(Nc2ccncc2)cc1)c1ccc(Nc2ccnc3ccc([N+](=O)[O-])cc23)cc1[N+](=O)[O-] on NCI/ADR-RES ovarian: TGI was > 100 µM

TGI of CC(=O)O[C@H]1C[C@](C)(O)[C@@]23CC([C@@H](OC(=O)C(C)(C)O)[C@@H](OC(C)=O)C2(COC(=O)c2ccccc2)[C@H]1OC(C)=O)C(C)(C)O3 (some centres not stated) , assay on NCI/ADR-RES ovarian, is > 100 µM

Case CS(=O)(=O)OCC1CCCCCCCCCCC12SCCCS2 (configuration not stated) , NCI/ADR-RES ovarian, TGI recorded as > 100 µM

# O=C(CSCC(=O)N/N=C\c1ccccc1F)N/N=C\c1ccccc1F with NCI/ADR-RES ovarian: TGI is 63.1 µM

The compound Oc1ccc(Oc2cnc3cc(Cl)ccc3n2)cc1 , tested on NCI/ADR-RES ovarian, showed TGI of > 100 µM

TGI for NCI/ADR-RES ovarian with input CCN(CC)C1Oc2cc3c(cc2C(c2cccc(OC)c2O)C1C)OCO3 (configuration not stated) equals 53.8 µM

NCI/ADR-RES ovarian assay, compound CC#CC#C/C=C1\C=CC2(OC=CC2OC(C)=O)O1 (configuration not stated) , recorded TGI = > 100 µM

Value sought: TGI, system NCI/ADR-RES ovarian, item OC1(c2ccc(Cl)cc2)c2c(c3ccccc3c3ccccc23)C2=NCCN21 (configuration not stated) . Result: 25.5 µM

Given the compound O=C1C=C(O)c2c(O)ccc(O)c2C1=O and test system NCI/ADR-RES ovarian, the measured TGI is > 100 µM

The reported TGI value, NCI/ADR-RES ovarian, for COc1ccc(N2N=NN(C(C)C)/C2=C(/Cl)c2nnnn2-c2ccc(OC)cc2)cc1 reads 61.2 µM

Kindly note: NCI/ADR-RES ovarian, CCOC(=O)c1ccccc1SC(C[N+](=O)[O-])c1ccccc1 (configuration not stated) , TGI value reported: 64.1 µM

# lookup: CC(=O)N1C(Nc2cccc3nc(C)ccc23)CCN1c1ccccc1 (configuration not stated) on NCI/ADR-RES ovarian, TGI = > 10 µM

Summary: OCC1OC(c2ccccc2)CC1O (configuration not stated) , NCI/ADR-RES ovarian, TGI = > 100 µM

Item: NC(=O)c1sc(-n2cnc3ccc(C(F)(F)F)cc32)cc1OCc1ccccc1Br | System: NCI/ADR-RES ovarian | TGI: > 25 µM

The observed TGI for Clc1ccc2nc(Cl)c3ccccc3c2c1 when tested with NCI/ADR-RES ovarian stands at > 100 µM

Here C[N+]1([O-])[C@H]2CC(OC(=O)[C@H](CO)c3ccccc3)C[C@H]1[C@H]1O[C@H]12 (some centres not stated) was tested on NCI/ADR-RES ovarian, and its TGI came to > 100 µM

So the reported TGI for O=C1CCSC(=S)N1c1ccc(Br)c(Cl)c1 , on NCI/ADR-RES ovarian, turned out to be > 100 µM

Known value: NCI/ADR-RES ovarian TGI of the compound CN1C=COC1N=C1CCCCC1 (configuration not stated) equals > 100 µM

Field TGI (system: NCI/ADR-RES ovarian) for entry O=C1/C(=C/c2ccc(Cl)cc2)CCC1CN1CCOCC1 (configuration not stated) = 22.5 µM

NCI/ADR-RES ovarian data for COc1ccc(-n2cc(-c3cc(OC)c(OC)c(OC)c3)[nH]c2=S)cc1Cl ; its TGI: > 100 µM

Known value: NCI/ADR-RES ovarian TGI of the compound CC(=O)c1[nH]c(Nc2ccc(C)cc2)c(C(=S)Nc2ccccc2)c1N equals 89.4 µM

Value (TGI, NCI/ADR-RES ovarian) for record O=C(NNS(=O)(=O)c1ccccc1)c1csc(NC(=S)NC2CCCCC2)n1 = > 100 µM

====

test system: PC-3 prostate; test: NCI tumour cell line growth inhibition, 48 h
Assign TGI to each entry below.

Given item COc1cc(C2c3cc(OC)c(OC)c(O)c3C(=O)C3CCC(=O)N32)cc(OC)c1OC (stereo not drawn) , the value recorded as its TGI is > 100 µM

Value of TGI reported for the compound CCn1c(=O)c2c3ccc(OC)cc3[nH]c2c2ccc(OC)cc21 is > 100 µM

// TGI value for Oc1ccc(Oc2cnc3cc(Cl)ccc3n2)cc1 : > 100 µM

====

tested on: SN12C renal; assay: NCI tumour cell line growth inhibition, 48 h; in the data active = GI50 below about 0.43 µM; inactive = the rest
# output must be one of YES (active), NO (inactive)

Challenge: I'd appreciate the recorded outcome for O=C(c1ccco1)c1nc2cc(C(F)(F)F)ccc2[n+]([O-])c1C(F)(F)F from this test.
Response given: NO

Challenge: # lookup: test call for O=C1CC(c2ccsc2)c2snc(-c3ccc(Cl)cc3)c2N1 (stereo not given)
Response given: NO

Challenge: # outcome recorded in this test, key = O=C1/C(=C/c2ccc(Cl)cc2)CN(C(=O)CCN2CCC(=NO)CC2)C/C1=C\c1ccc(Cl)cc1
Response given: NO

Challenge: Recorded call for COc1ccc2c(c1)[nH]c(=O)c1c3cc(OC)c(OC)cc3cn21 ?
Response given: YES

Challenge: Check the results log: what was the call for COc1ccc2c(c1)C(=O)c1c-2c(N2CCN(C(=O)CNCCN(C)C)CC2)nc2ccccc12 ?
Response given: NO

====

test system: CCRF-CEM leukemia; assay: NCI tumour cell line growth inhibition, 48 h
Give TGI for every item shown.

Entry COC1C(CO)OC(n2c3c(Cl)cccc3c3c4c(c5c6cccc(Cl)c6[nH]c5c32)C(=O)NC4=O)C(O)C1O (stereo not drawn) ; TGI = > 100 µM

// TGI value for Oc1ccc2ccccc2c1N=Nc1ccc(Cl)cc1 : > 100 µM

Lab book: TGI of CCOC(=O)C(NC(=O)CC)(Nc1ccc(S(=O)(=O)Nc2ccc(OC)nn2)cc1)C(F)(F)F (stereo not drawn) noted as > 100 µM

Note to self: TGI recorded for OC(C1CCCCCCCCCC1)C(O)C1CCCCCCCCCC1 (stereo not drawn) was > 100 µM

Just so you know, measured TGI for COc1cc(/C=C/C(=N\NC(=S)NN)c2sc(NNC(C)=O)nc2C)ccc1O came out at > 100 µM

Per the records, this compound ( COc1cc2[nH]c(=O)c3cc(C)cc4c(Cl)nc(c1OC)c2c43 ) has TGI equal to > 100 µM

Entry under test: CC(=O)c1[nH]c(Nc2ccc(C)cc2)c(C(=S)Nc2ccccc2)c1N . Its TGI was 62.1 µM

For this compound ( COc1ccc(N2N=NN(C(C)C)/C2=C(/Cl)c2nnnn2-c2ccc(OC)cc2)cc1 ), measured TGI is 4.24 µM

TGI measured on O=C1/C(=C/c2ccc(Cl)cc2)CCC1CN1CCOCC1 (stereo not drawn) = 6.84 µM

Value of TGI reported for the compound COc1ccc([C@H]2c3cc4c(cc3OC(O)(CO)[C@H]2C(=O)O)OCO4)c(OC)c1 (stereo partly drawn) (tested in a mixture with another compound) is > 100 µM

The compound identified as COc1ccc(-c2nnc(SCC(=O)Nc3ccc(C(=O)/C=C/c4cc(OC)c(OC)c(OC)c4)cc3)n2-c2ccccc2)cc1OC registered its TGI at > 10 µM

Form: compound = O=c1c2c(=NCCN3CCCC3)cc3c(=O)n(CCCN4CCOCC4)c(=O)c4ccc(c(O)n1CCCN1CCOCC1)c2c4-3 ; TGI = 1.59 µM

Form: compound = CCC(C)c1cccc(C)c1NC(=O)C(=O)Cc1nc2ccccc2s1 (stereo not drawn) ; TGI = > 100 µM

Please fill in: TGI reported for C=CCOCn1ccc(N)nc1=O = > 100 µM

get_value(item= CC[C@H]1CN(C)[C@H]2Cc3c([nH]c4ccccc34)C(=O)C[C@H]1C2C(=O)OC (stereo partly drawn) , readout=TGI) returns > 100 µM

Entry O=C(NNS(=O)(=O)c1ccccc1)c1csc(NC(=S)NC2CCCCC2)n1 , TGI reported as > 100 µM

The compound identified as CNC(=O)c1cc(Oc2ccc3nc(N[C@@H]4CCCC[C@H]4O)sc3c2)ccn1 registered its TGI at > 100 µM

Record COc1cnc2c(c1)C(=O)c1c-2n(CCCNCCN2CCOCC2)c(=O)c2cc([N+](=O)[O-])ccc12 , field TGI: 3.2 µM

For this compound ( O=c1c2cc(I)ccc2nc(SCc2nnco2)n1Cc1ccccc1 ), measured TGI is 62.9 µM

Entry CO[C@]12CC(=O)C3(C(C[C@H]4CC5CC[C@H]6C[C@@H](OC(C)=O)CC[C@]6(OC(C)=O)C5C[C@@]43C)C1)C1C[C@H]3[C@@H]4CC[C@H]5C[C@@H](OC(C)=O)CC[C@]5(OC(C)=O)[C@H]4CC[C@]3(C)C12 (stereo partly drawn) , TGI reported as > 100 µM

Value of TGI reported for the compound C[N+](C)(C)CC(=O)N/N=C(/Cc1nc2ccc([N+](=O)[O-])cc2[nH]c1=O)C(=O)Nc1cc(C(F)(F)F)ccc1Cl is > 100 µM

Quick note, TGI for CCOc1ccc(NCC2CC/C(=C\c3ccc(Cl)cc3)C2=O)cc1 (stereo not drawn) landed at 22.8 µM

Form field TGI, entry CN(/N=C/c1ccc(Cl)cc1)C1=NCCCCN1 : > 100 µM

Memo: CCN(CC)C1Oc2cc3c(cc2C(c2cccc(OC)c2O)C1C)OCO3 (stereo not drawn) , reported TGI: 16.3 µM

GET /value?item= COc1ccc2c(c1)C(=O)c1c-2c(N2CCN(C(=O)CNCCN(C)C)CC2)nc2ccccc12 &field=TGI returns 4.5 µM

Entry CN(C)C=NCC(O)c1ccccc1 (stereo not drawn) ; TGI = > 100 µM

Sample CN(C)c1ccc(Nc2c3ccccc3nc3cc(NC(=O)CCN4CCCC4)ccc23)cc1 ; TGI observed: 1.38 µM

In plain terms, O=C(Nc1ccc(Nc2ccncc2)cc1)c1ccc(Nc2ccnc3ccc([N+](=O)[O-])cc23)cc1[N+](=O)[O-] has a documented TGI of > 50.6 µM

Lookup result for Cn1cnc(SC2=C3C(=O)C=C4S[C@H]5C[C@]42c2c(c(O)c4c6c2=[N+]3CCC=6C=N4)N5)c1CC(N)C(=O)O (stereo partly drawn) ; measured TGI: 45.9 µM

Given item C[N+](C)(C)CC(CC(=O)[O-])C1CC1 (stereo not drawn) , the value recorded as its TGI is > 100 µM

// Fc1cccc(Cl)c1Cn1c(-c2c(F)cccc2Cl)nc2ccccc21 : TGI value = > 100 µM

Measured TGI of O=S(c1ccc(Cl)cc1)c1ccccc1C1=NCCN1 (stereo not drawn) : > 100 µM

get_value(item= Cc1cccc(C(C)C)c1NC(=O)CCl , readout=TGI) returns > 100 µM

TGI for COc1ccc(-n2cc(-c3cc(OC)c(OC)c(OC)c3)[nH]c2=S)cc1Cl is > 100 µM

TGI for CC1=CC(=O)/C(=C/n2c(=S)[nH]c3cc(C)ccc32)C(=O)O1 is > 100 µM

What the record says about CC(=O)c1ccc2c3c1O[C@H]1c4[nH]c5ccccc5c4C[C@@]4(O)[C@@H](C2)N(CC2CC2)CC[C@]314 : TGI is 28.2 µM

Given item O=C(c1ccccc1)c1c(C(F)(F)F)n([O-])c2cc(F)c(F)cc2[n+]1=O , the value recorded as its TGI is > 100 µM

Reported TGI for O=C(Oc1ccc2c(-c3ccccc3)c(C(=O)Nc3ccc(Cl)cc3)c(=O)oc2c1)c1ccccc1 was > 100 µM
